Attribution: patent US20190233494A1

# TARGET OR SYSTEM: T1, RXFP1 receptor (endogenous, on OVCAR5 cells) (UniProt Q9HBX9 1-757, limits assumed)
# T1 sequence (looked up): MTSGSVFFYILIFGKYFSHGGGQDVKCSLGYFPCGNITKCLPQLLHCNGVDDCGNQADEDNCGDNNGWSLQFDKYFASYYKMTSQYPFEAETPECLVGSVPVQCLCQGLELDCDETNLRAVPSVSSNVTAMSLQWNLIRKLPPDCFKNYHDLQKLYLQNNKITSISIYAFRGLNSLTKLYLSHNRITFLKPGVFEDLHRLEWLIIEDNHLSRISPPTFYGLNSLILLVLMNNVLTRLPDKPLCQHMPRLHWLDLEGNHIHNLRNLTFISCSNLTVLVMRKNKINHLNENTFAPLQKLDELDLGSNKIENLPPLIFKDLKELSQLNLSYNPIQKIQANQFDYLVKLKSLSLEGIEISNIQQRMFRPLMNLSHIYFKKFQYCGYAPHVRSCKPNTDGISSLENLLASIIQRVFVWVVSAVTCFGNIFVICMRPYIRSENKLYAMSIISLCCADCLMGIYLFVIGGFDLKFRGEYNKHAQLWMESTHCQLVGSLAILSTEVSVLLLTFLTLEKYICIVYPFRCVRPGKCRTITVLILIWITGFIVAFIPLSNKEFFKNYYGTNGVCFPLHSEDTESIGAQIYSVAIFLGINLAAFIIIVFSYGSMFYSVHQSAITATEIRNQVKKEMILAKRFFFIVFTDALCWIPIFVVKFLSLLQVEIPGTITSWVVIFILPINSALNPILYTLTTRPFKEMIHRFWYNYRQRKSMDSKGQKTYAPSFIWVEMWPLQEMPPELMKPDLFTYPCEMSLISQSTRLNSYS
# EXPERIMENT NOTES: cell-based or functional assay
Starred links: 1 amine or outer side, 2 acyl side, 3 side chain; linkers in the order of their positions; H or OH if unused. Non-standard residues stand in square brackets, D forms with d. Groups on a side chain read outwards from the residue. *: point of attachment. TTDS = 4-[3-[2-[2-(3-aminopropoxy)ethoxy]ethoxy]propylamino]-4-oxo-butanoyl; Trp(5-Cl) = N[C@@H](Cc1c[nH]c2ccc(Cl)cc12)C(=O)O; γGlu = O=C(O)[C@H](CCC(=O)[*:2])N[*:1]; Stearoyl = CCCCCCCCCCCCCCCCCC(=O)*; Palmitoyl = CCCCCCCCCCCCCCCC(=O)*; αMeK = C[C@](N)(CCCCN)C(=O)O; Aib = CC(C)(N)C(=O)O
READOUT KIND: EMax, OVCAR 5 cells (cAMP) (%)

binder="Ac-LEGRERVRAK(Ac)I[Aib][Aib]EGK([TTDS-TTDS-TTDS-γGlu-γGlu-γGlu-Palmitoyl])ST[Trp(5-Cl)]S[Aib]RRK(Ac)-NH2 [peptide of SEQ ID NO: 80]" readout_kind="EMax, OVCAR 5 cells (cAMP)" readout_number=93
binder="Ac-LEGREKVRAK(Ac)I[Aib][Aib]EGK([TTDS-TTDS-TTDS-TTDS-γGlu-γGlu-γGlu-Stearoyl])STFS[Aib]RKK(Ac)-NH2 [peptide of SEQ ID NO: 59]" readout_kind="EMax, OVCAR 5 cells (cAMP)" readout_number=99
binder="Ac-LEGREKVRAK(Ac)I[Aib][Aib]EGK([TTDS-TTDS-γGlu-γGlu-γGlu-γGlu-Stearoyl])STWS[Aib]RKK(Ac)-NH2 [peptide of SEQ ID NO: 54]" readout_kind="EMax, OVCAR 5 cells (cAMP)" readout_number=96
binder="Ac-LEGREKVRAK(Ac)I[Aib][Aib]EGK([TTDS-TTDS-γGlu-γGlu-γGlu-Stearoyl])STFS[αMeK]RAK(Ac)-NH2 [peptide of SEQ ID NO: 34]" readout_kind="EMax, OVCAR 5 cells (cAMP)" readout_number=90
